Target: Sodium- and chloride-dependent glycine transporter 2 (Homo sapiens, UniProt Q9Y345)
Sequence (Q9Y345 whole entry): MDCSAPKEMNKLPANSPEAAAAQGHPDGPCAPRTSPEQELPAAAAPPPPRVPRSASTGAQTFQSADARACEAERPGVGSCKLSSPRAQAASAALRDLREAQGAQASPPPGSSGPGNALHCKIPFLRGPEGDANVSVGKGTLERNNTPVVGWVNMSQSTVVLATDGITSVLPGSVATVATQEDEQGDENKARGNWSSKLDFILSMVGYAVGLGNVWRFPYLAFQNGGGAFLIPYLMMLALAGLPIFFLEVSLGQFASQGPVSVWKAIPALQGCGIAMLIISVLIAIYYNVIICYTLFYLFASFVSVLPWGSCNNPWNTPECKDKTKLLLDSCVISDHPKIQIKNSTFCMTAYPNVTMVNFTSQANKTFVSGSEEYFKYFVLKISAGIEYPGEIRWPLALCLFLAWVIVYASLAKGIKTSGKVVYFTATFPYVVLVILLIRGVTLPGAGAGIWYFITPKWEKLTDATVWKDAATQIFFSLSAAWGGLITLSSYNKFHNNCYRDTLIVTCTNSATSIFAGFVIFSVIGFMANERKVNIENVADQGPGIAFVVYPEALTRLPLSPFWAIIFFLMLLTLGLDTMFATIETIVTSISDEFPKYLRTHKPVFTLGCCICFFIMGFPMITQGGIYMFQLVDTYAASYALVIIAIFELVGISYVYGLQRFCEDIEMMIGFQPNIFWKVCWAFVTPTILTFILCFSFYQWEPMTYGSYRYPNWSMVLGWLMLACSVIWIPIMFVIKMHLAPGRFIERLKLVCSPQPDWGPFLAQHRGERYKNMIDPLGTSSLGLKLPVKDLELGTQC
Assay: Reversible non-competitive inhibition of human GlyT2a expressed in Xenopus laevis oocytes by two-electrode voltage clamp electrophysiology
Type: cell-based
result-type: pIC50
Just the number, please; pIC50 means minus log10 of the concentration in mol/L.

Recorded pIC50, per entry:
CCCCC/C=C\C/C=C\C/C=C\C/C=C\CCCC(=O)NCC(=O)O [ARACHIDONOYL GLYCINE] = 5.05
CCCCC/C=C\C/C=C\C/C=C\C/C=C\CCCC(=O)N[C@@H](C)C(=O)O = 5.05
CCCCCCCC/C=C\CCCCCCCC(=O)NCC(=O)O [OLEOYL GLYCINE] = 6.30
CCCCCCCCCCCCCCCC(=O)O[C@H](CC(=O)[O-])C[N+](C)(C)C = 6.22
CCCCC/C=C\C/C=C\C/C=C\C/C=C\CCCC(=O)NCCCC(=O)O [ARACHIDONOYL GABA] = 4.92

Now take the following molecule into account.
I am curious: what pIC50 value has been reported for CCCCCCCC/C=C\CCCCCCCC(=O)O[C@H](CC(=O)[O-])C[N+](C)(C)C ?
6.47

* * *

Assay: Drug degradation in human liver microsomes at 1 uM measured over 60 mins by LC-MS/MS analysis
Type: ADME, Microsome
Conditions: read-out: Drug degradation
Form field: metabolised at 1 h, 1 µM (one value per entry).

Please give the measured metabolised at 1 h, 1 µM for this molecule: CCCCCCCC/C=C\CCCCCCCC(=O)N[C@@H](CCCCN)C(=O)O.Cl
< 15%

Quick one: CCCCCCCC/C=C\CCCCCCCC(=O)N[C@H](CCCCN)C(=O)O.Cl
< 15%
